molecular target: CB1 receptor (Homo sapiens); assay: [35S]-GTPγS binding assay on membranes from cells stably transfected with the CB1 gene, inhibition of agonist CP55940 (EC80); conditions: half maximal inhibition of GTPγS binding in presence of EC80 concentration of CP55940; 30° C., 45 min
Sequence (P21554 whole entry): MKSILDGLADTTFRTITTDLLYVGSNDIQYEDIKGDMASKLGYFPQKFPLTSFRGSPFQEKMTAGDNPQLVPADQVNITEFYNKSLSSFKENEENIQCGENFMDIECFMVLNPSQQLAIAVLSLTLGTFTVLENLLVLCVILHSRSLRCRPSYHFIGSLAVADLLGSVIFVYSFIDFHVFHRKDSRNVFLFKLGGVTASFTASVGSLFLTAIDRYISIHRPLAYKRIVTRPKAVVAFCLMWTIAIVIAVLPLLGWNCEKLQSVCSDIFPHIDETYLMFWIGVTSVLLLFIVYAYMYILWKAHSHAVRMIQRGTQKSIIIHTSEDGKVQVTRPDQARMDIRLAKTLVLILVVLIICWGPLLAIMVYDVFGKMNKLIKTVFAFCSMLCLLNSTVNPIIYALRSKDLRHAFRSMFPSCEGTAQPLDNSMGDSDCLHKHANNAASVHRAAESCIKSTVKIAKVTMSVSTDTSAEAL
MEASURED_ATTRIBUTE: IC50

molecule="CCS(=O)(=O)Oc1ccc(-n2c(-c3ccc(Cl)cc3Cl)nc(C(=O)NN3CCCCC3)c2C)cc1 [Example 2]" measured_attribute=IC50 result="28 nM"
